Listed compounds paired with reported Alternation rate (%)
Tested on: mice subjected to chronic restraint stress (CRS)
Experiment: Y-maze alternation task, chronic restraint stress (CRS) mice
Type: in vivo, mouse
Conditions: Dose 10 mg/kg

# Smiles Input, Unit Abbreviation, Alternation rate (%)
rows = [
    ("Cc1noc(-c2ncn3c2[C@@H](C)N=C(c2ccccn2)c2cc(Br)ccc2-3)n1", "%", 66.66),
    ("C#Cc1ccc2c(c1)C(c1ccccc1F)=N[C@H](C)c1c(C(=O)N3CCCC3)ncn1-2", "%", 47.2),
    ("C#Cc1ccc2c(c1)C(c1ccccc1F)=NCc1c(-c3nc(C)no3)ncn1-2", "%", 56.6),
    ("C#Cc1ccc2c(c1)C(c1ccccn1)=N[C@H](C)c1c(C(=O)NC)ncn1-2", "%", 56.6),
]
